tested_system: Estrogen receptor (Homo sapiens, UniProt P03372)
Sequence (P03372 whole entry, the tested form may be a part): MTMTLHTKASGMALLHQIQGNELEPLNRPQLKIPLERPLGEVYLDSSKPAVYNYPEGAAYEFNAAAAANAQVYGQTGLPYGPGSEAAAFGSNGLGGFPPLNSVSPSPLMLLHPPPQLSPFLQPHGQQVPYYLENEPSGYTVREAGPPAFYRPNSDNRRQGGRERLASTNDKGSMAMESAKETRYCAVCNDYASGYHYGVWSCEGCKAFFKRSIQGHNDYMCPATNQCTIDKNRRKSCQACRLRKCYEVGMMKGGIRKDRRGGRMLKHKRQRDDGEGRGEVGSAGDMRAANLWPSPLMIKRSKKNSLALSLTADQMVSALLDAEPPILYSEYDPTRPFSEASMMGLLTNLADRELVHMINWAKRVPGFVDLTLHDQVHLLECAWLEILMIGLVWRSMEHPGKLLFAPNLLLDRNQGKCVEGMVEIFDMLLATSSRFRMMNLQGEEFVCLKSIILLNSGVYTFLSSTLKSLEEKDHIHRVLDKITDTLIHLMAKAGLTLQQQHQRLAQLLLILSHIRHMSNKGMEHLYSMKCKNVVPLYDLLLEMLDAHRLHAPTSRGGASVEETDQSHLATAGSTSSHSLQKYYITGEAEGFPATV
assay_name: Binding affinity to human ERalpha LBD after 2 hrs in absence of light by competitive fluorometric binding assay
The following compounds are listed with their measured pKi values.
Note on units: pKi is unitless, being -log10 of a concentration expressed in mol/L.

{"compound": "O=S(=O)(Oc1ccccc1C(F)(F)F)C1CC2OC1C(c1ccc(/C=C/c3cc(O)cc(O)c3)cc1)=C2c1ccc(O)cc1 (centres undefined)", "pKi": 6.30}

Here is the next item to consider.
Fill in: Estrogen receptor (Homo sapiens, UniProt P03372) pKi for COc1cc(/C=C/c2ccc(OS(=O)(=O)C3CC4OC3C(c3ccc(O)cc3)=C4c3ccc(O)cc3)cc2)cc(OC)c1 (centres undefined) = 7.46
